Where these numbers come from: patent US20040220384A1

# ASSAYED SYSTEM: T1, rat GPR7 (rat TGR26) (rat, UniProt Q56UD9 1-329)
# T1 sequence: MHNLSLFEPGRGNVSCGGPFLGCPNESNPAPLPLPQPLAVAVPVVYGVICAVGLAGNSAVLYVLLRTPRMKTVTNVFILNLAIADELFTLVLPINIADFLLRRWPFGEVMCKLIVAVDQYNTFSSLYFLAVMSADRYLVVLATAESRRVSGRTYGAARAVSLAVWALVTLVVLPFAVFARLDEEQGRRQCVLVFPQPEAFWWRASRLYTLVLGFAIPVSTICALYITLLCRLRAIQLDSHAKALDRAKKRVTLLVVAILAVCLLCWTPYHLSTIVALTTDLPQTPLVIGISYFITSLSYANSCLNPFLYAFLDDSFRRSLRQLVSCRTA
# EXPERIMENTAL DETAILS: cell-based or functional assay
Non-standard residues stand in square brackets, D forms with d. No end group written: not given here. Trp(6-Br) = N[C@@H](Cc1c[nH]c2cc(Br)ccc12)C(=O)O; dTrp(6-Br) = N[C@H](Cc1c[nH]c2cc(Br)ccc12)C(=O)O
MEASURED PARAMETER: IC50 of intracellular cAMP production suppression (cAMP production inhibition rate) (nM)

> print(dat)
                                     binder  readout.number
1  WYKPAAGSHHYSVGRAAGLLSSFH (also called rat GPR7 ligand A) [Trp1-rat GPR7L(24)]            0.18
2  WYKPTAGQGYYSVGRAAGLLSGFHRSPYA (also called bovine GPR7 ligand B; non-brominated GPR7L) [Trp1-bovine GPR7L(29)]            0.25

1. [Trp(6-Br)]YKPTAGQGYYSVGRAAGLLSGFHRSPYA [LTrp(6Br)1-bovine GPR7L(29)]
2. WYKPAAGSHHYSVGRAAGLLSSFHRFPST (also called rat GPR7 ligand B) [Trp1-rat GPR7L(29)]
3. [dTrp(6-Br)]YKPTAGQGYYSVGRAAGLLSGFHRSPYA [DTrp(6Br)1-bovine GPR7L(29)]
4. [Trp(6-Br)]YKPAAGHSSYSVGRAAGLLSGLRRSPYA [LTrp(6Br)1-human GPR7L(29)]
5. [dTrp(6-Br)]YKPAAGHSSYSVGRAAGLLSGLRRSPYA [DTrp(6Br)1-human GPR7L(29)]
q: Could you please sort these 5 entries by IC50 of intracellular cAMP production suppression (cAMP production inhibition rate) from high to low? Response format: the labels, sorted as the prompt asks.
a: 5, 3, 4, 2, 1
(5: 49 nM, 3: 2.5 nM, 4: 0.47 nM, 2: 0.3 nM, 1: 0.21 nM)
